Experimental target: recombinant human AChE (Homo sapiens)
Sequence (P22303 32-614): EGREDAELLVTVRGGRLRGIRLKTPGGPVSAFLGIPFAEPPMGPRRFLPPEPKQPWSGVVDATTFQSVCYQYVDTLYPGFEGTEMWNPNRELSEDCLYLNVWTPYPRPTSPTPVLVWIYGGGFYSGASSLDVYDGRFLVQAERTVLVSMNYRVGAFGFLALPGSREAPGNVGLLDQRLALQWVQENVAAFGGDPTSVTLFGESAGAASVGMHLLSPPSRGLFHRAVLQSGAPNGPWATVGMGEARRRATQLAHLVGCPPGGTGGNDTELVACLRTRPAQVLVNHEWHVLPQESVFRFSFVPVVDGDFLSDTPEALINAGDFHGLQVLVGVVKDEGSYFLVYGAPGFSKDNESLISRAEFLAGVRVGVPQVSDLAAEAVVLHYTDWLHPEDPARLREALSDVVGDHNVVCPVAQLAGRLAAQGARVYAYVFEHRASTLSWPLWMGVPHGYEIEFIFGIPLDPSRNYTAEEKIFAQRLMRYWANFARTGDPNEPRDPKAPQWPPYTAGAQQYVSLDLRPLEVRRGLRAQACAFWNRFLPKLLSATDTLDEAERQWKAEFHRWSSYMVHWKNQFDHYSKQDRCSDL
Protocol: biochemical
Assay type: biochemical
Assay context: read-out: efficacy (%), Colorimetric, +Rat MS
Each entry below carries its reported Emax.
Express your answer as a number followed by its unit.

# annotated cases, reported Emax shown
Compound	Emax
CCOP(=S)(Oc1cnc(C(C)(C)C)nc1)OC(C)C (centres unmarked) [Tebupirimfos]	100%
CCOP(=S)(OCC)OC(Cl)C(Cl)(Cl)Cl (centres unmarked) [Chlorethoxyfos]	105%
CCOP(=S)(OCC)Oc1nc(Cl)c(Cl)cc1Cl [Chlorpyrifos]	98.8%
CCOP(=S)(OCC)Oc1cc(C)nc(C(C)C)n1 [Diazinon]	73.1%

Recorded Emax for CCOP(=S)(OCC)SCSCC [Phorate] , please? 96.3%

What about this compound? CCOP(=S)(OCC)Oc1ccc2c(C)c(Cl)c(=O)oc2c1 [Coumaphos] 96.5%

What about this compound? CCOC(=O)CC(SP(=S)(OC)OC)C(=O)OCC (centres unmarked) [Malathion] 59.4%

What about this compound? CCOP(=S)(OCC)SCSC(C)(C)C [Terbufos] 95.7%
